# Test system: prednisolone-resistant leukemia cells
# protocolNotes: Overcoming of prednisolone resistance
# Format: cell-based
# conditionsUsed: 72 h
parameterMeasured: EC50

1. CC(C)CCC[C@@H](C)[C@H]1CC[C@H]2[C@@H]3[C@H]4OC[C@@]5(CC[C@H](OC(=O)CO)C[C@]5(O)C4=O)[C@H]3CC[C@]12C
~17.5 µM
2. C=C(CC(=O)O[C@H]1CC[C@@]23CO[C@@H](C(=O)[C@@]2(O)C1)[C@H]1[C@@H]2CC[C@H]([C@H](C)CCCC(C)C)[C@@]2(C)CC[C@@H]13)C(=O)OC
~12.5 µM
3. CC(=O)O[C@@H]1CC[C@@]23CO[C@@H](C(=O)[C@@]2(O)C1)[C@H]1[C@@H]2CC[C@H]([C@H](C)CCCC(C)C)[C@@]2(C)CC[C@@H]13
~20 µM
4. CC(C)CCC[C@@H](C)[C@H]1CC[C@H]2[C@@H]3[C@H]4OC[C@@]5(CC[C@H](OS(C)(=O)=O)C[C@]5(O)C4=O)[C@H]3CC[C@]12C
~30 µM
5. CC(=O)O[C@H]1CC[C@@]23CO[C@@H](C(=O)[C@@]2(O)C1)[C@H]1[C@@H]2CC[C@H]([C@H](C)CCCC(C)C)[C@@]2(C)CC[C@@H]13
17.5 µM
6. CC(C)CCC[C@@H](C)[C@H]1CC[C@H]2[C@@H]3[C@H]4OC[C@@]5(CCCC[C@]5(O)C4=O)[C@H]3CC[C@]12C [TAS-S398, 7β,19-epoxy-5α-hydroxy-cholestan-6-one]
~67 µM

Query string: Using the record for "CC[C@H](CC[C@@H](C)[C@H]1CC[C@H]2[C@@H]3[C@H]4OC[C@@]5(CC[C@H](OC(C)=O)C[C@]5(O)C4=O)[C@H]3CC[C@]12C)C(C)C" , report its EC50.
Result string: ~40 µM

---

# Tested on: prednisolone-resistant leukemia cells
# protocolNotes: Overcoming of prednisolone resistance
# Assay type: cell-based
# conditionsUsed: 72 h
pEC50: −log10 of the molar value.
parameterMeasured: pEC50

Consider the following illustrative entries.
1. C=C1[C@@H]2OC[C@@]3(CC[C@H](O)C[C@]13O)[C@H]1CC[C@]3(C)[C@@H]([C@H](C)CCCC(C)C)CC[C@H]3[C@H]21
~4.12
2. CC(C)CCC[C@@H](C)[C@H]1CC[C@H]2[C@@H]3[C@H]4OC[C@@]5(CC=CC[C@]5(O)C4=O)[C@H]3CC[C@]12C
~4.41
3. CC[C@H](CC[C@@H](C)[C@H]1CC[C@H]2[C@@H]3[C@H]4OC[C@@]5(CC[C@H](O)C[C@]5(O)C4=O)[C@H]3CC[C@]12C)C(C)C
~4.42

Read the next record carefully.
Query string: Give pEC50 (prednisolone-resistant leukemia cells) of the following compound: CC(C)CCC[C@@H](C)[C@H]1CC[C@H]2[C@@H]3[C@H]4OC[C@@]5(CC[C@H](O)C[C@]5(O)C4(C)O)[C@H]3CC[C@]12C (stereo partly shown)
Result string: ~4.77

These entries and their values trace back to patent US20240398836A1.
